# target_of_assay: 11β-HSD1 (Mus musculus)
# Construct: endogenous in cells
# Sequence (P50172 whole entry): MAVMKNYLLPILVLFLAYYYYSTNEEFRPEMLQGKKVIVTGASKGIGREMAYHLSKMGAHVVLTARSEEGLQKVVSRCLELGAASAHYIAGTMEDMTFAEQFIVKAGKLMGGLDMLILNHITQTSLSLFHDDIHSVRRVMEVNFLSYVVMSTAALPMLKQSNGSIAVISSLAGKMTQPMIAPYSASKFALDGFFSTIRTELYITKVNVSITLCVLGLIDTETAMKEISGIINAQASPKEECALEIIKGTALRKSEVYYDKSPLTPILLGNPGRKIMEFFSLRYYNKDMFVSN
# assay_remarks: Cellular assay of 11β-HSD1 activity in differentiated 3T3-L1 cells
# run_parameters: 4 hour pre-incubation, 10^-5M to 10^-10M, read-out: HSD1 cellular 3T3-L1 Score
Quick reference: IC50 of the listed items.
property_measured: IC50

molecule="COc1cc(OC)cc(OC(C)(C)C(=O)N[C@H]2[C@@H]3CC4C[C@H]2C[C@](O)(C4)C3)c1 [Compound 17]" result="< 1 µM"
molecule="CC(=O)N[C@@]12CC3C[C@H](C1)[C@H](NC(=O)C(C)(C)Nc1ccc(C)cc1)[C@@H](C3)C2 [Compound 37]" result="< 1 µM"
molecule="Cc1ccc(NC(C)(C)C(=O)N[C@H]2[C@@H]3CC4C[C@H]2C[C@](O)(C4)C3)cc1 [Compound 27]" result="< 1 µM"
molecule="Cc1cc(Cl)ccc1OC(C)(C)C(=O)N[C@H]1[C@@H]2CC3C[C@H]1C[C@](NC(=O)CCl)(C3)C2 [Compound 31]" result="< 1 µM"
molecule="CC(C)(Oc1cccc(C(F)(F)F)c1Cl)C(=O)N[C@H]1[C@@H]2CC3C[C@H]1C[C@](N)(C3)C2 [Compound 100]" result="< 1 µM"
molecule="COc1cccc(OC(C)(C)C(=O)N[C@H]2[C@@H]3CC4C[C@H]2C[C@](O)(C4)C3)c1 [Compound 14]" result="< 1 µM"
molecule="Cc1cc(Cl)ccc1OC(C)(C)C(=O)N[C@H]1[C@@H]2CC3C[C@H]1C[C@](NC(=O)CN(C)CCO)(C3)C2 [Compound 42]" result="< 1 µM"
molecule="Cc1cc(Cl)ccc1OC(C)(C)C(=O)N[C@H]1[C@@H]2CC3C[C@H]1C[C@](C(=O)O)(C3)C2 [Compound 50]" result="< 1 µM"
molecule="Cc1cc(Cl)ccc1OC(C)(C)C(=O)N[C@H]1[C@@H]2CC3C[C@H]1C[C@](NC(=O)CN1CCOCC1)(C3)C2 [Compound 73]" result="< 1 µM"
molecule="CC(C)(Oc1ccccc1Cl)C(=O)N[C@H]1[C@@H]2CC3C[C@H]1C[C@](N)(C3)C2 [Compound 99]" result="< 1 µM"
molecule="CC(C)(Oc1ccccc1C(F)(F)F)C(=O)N[C@H]1[C@@H]2CC3C[C@H]1C[C@](N)(C3)C2 [Compound 102]" result="< 1 µM"
molecule="CC(C)(Oc1ccccc1)C(=O)N[C@H]1[C@@H]2CC3C[C@H]1C[C@](O)(C3)C2 [Compound 69]" result="< 1 µM"
molecule="COc1ccc(NC(C)(C)C(=O)N[C@H]2[C@@H]3CC4C[C@H]2C[C@](O)(C4)C3)cc1 [Compound 58]" result="< 1 µM"
molecule="CC(=O)N[C@@]12CC3C[C@H](C1)[C@H](NC(=O)C(C)(C)Nc1cccc(C(F)(F)F)c1)[C@@H](C3)C2 [Compound 65]" result="< 1 µM"
molecule="CC(C)(Oc1cccc(C(F)(F)F)c1)C(=O)N[C@H]1[C@@H]2CC3C[C@H]1C[C@](N)(C3)C2 [Compound 81]" result="< 1 µM"
molecule="Cc1ccc(OC(C)(C)C(=O)N[C@@H]2[C@@H]3CC4C[C@H]2C[C@](OCc2ccccc2)(C4)C3)cc1 [Compound 48]" result="< 1 µM"
molecule="Cc1cc(Cl)ccc1OC(C)(C)C(=O)N[C@H]1[C@@H]2CC3C[C@H]1C[C@](NS(=O)(=O)N(C)C)(C3)C2 [Compound 30]" result="< 1 µM"
molecule="Cc1cccc(OC(C)(C)C(=O)N[C@H]2[C@@H]3CC4C[C@H]2C[C@](O)(C4)C3)c1 [Compound 10]" result="< 1 µM"
molecule="Cc1ccc(NC(C)(C)C(=O)N[C@H]2[C@@H]3CC4C[C@H]2C[C@](F)(C4)C3)cc1 [Compound 62]" result="< 1 µM"
molecule="CC(C)(Nc1cccc(C(F)(F)F)c1)C(=O)N[C@H]1[C@@H]2CC3C[C@H]1C[C@](O)(C3)C2 [Compound 60]" result="< 1 µM"
molecule="CC(C)(Oc1cccc(Br)c1)C(=O)N[C@H]1[C@@H]2CC3C[C@H]1C[C@](NC(=O)OCCCl)(C3)C2 [Compound 98]" result="< 1 µM"
molecule="CC(C)(Oc1ccc(Cl)cc1)C(=O)N[C@H]1[C@@H]2CC3C[C@H]1C[C@](O)(C3)C2 [Compound 67]" result="< 1 µM"
molecule="Cc1cc(Cl)ccc1OC(C)(C)C(=O)N[C@H]1[C@@H]2CC3C[C@H]1C[C@](N1CCC(C)C1=O)(C3)C2 (stereo partly shown) [Compound 91]" result="< 1 µM"
molecule="COC(=O)c1ccc(NC(C)(C)C(=O)NC2[C@@H]3CC4C[C@H]2C[C@](F)(C4)C3)cc1 (stereo partly shown) [Compound 96]" result="1 to 10 µM"
molecule="CC(=O)N[C@@]12CC3C[C@H](C1)C(NC(=O)C(C)(C)Nc1cccc(C(=O)O)c1)[C@@H](C3)C2 (stereo partly shown) [Compound 97]" result="> 10 µM"
molecule="Cc1ccc(OC(C)(C)C(=O)N[C@H]2[C@@H]3CC4C[C@H]2C[C@](O)(C4)C3)cc1 [Compound 13]" result="< 1 µM"
molecule="CC(C)(Nc1ccccc1)C(=O)N[C@H]1[C@@H]2CC3C[C@H]1C[C@](O)(C3)C2 [Compound 54]" result="< 1 µM"
molecule="CC(=O)N[C@@]12CC3C[C@H](C1)[C@H](NC(=O)C(C)(C)Oc1ccc(Cl)cc1C)[C@@H](C3)C2 [Compound 29]" result="< 1 µM"
